Tested on: A549/ATCC NSCLC
Assay: NCI-60 one-dose screen, 48 h (100 = growth as untreated, 0 = no growth, -100 = all killed)
Conditions: 10 µM unless noted
The panel holds about 83,000 compounds, 20% with a hit somewhere; the sample as a whole holds those more often.
Each item that follows carries a reported growth.
Kindly provide the numeric value in % only, without the unit symbol.

Sample records with growth:
>>> value("CC(=O)c1cccc(NS(=O)(=O)c2ccc(C)cc2)c1")
100
>>> value("OCCNc1ccccc1")
103
>>> value("O=C(O)c1ccc(OCc2ccccc2)cc1")
94.5
>>> value("Cc1ccc(S(=O)(=O)NC(=O)NCCSSCCNC(=O)NS(=O)(=O)c2ccc(C)cc2)cc1")
100
>>> value("OC(CCN1CCCCC1)(c1ccccc1)c1ccccc1")
104

What measured growth is associated with Cc1ccc2[nH]c3ccccc3c2c1 on A549/ATCC NSCLC?
102

What do you get for CCN(CC)CCOC(=O)Nc1c(C(C)C)cccc1C(C)C ?
95.3

What do you get for CCCCOC(=O)c1ccccc1O ?
113

Sourced from PubChem BioAssay (NCI)
